Sequence of the target: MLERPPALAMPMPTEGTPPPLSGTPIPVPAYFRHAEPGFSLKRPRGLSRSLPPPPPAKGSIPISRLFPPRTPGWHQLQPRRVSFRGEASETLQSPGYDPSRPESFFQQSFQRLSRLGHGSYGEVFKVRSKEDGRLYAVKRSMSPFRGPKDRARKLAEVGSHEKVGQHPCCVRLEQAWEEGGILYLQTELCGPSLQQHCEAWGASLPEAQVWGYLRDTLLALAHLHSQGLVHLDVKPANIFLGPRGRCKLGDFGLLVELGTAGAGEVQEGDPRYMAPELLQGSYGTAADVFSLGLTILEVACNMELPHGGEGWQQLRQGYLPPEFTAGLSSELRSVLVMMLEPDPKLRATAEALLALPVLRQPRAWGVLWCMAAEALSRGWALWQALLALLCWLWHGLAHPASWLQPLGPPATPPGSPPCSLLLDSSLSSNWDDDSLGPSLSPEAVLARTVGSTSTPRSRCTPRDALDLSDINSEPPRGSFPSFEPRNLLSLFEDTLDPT
pIC50: −log10 of the molar value.
QUANTITY: pIC50

P. Cn1c(=O)c(-c2c(Cl)cccc2Cl)cc2cnc(Nc3ccc(N4CCOCC4)cc3)nc21
Q. CCN(CC)CCOc1ccc(Nc2ncc3cc(-c4c(Cl)cccc4Cl)c(=O)n(C)c3n2)cc1
IN: Which entry has a larger number for pIC50, P or Q ? Respond with the label that goes with your answer.
OUT: Q
(Q: 8.09, P: 7.34)
